# System: NCI-N87 cell
# assayComment: In vitro cellular inhibitory activity on NCI-N87 gastric carcinoma cells (XTT)
# Format: cell-based
# experimentalConditions: Homo sapiens, NCI-N87; 72 hours, XTT; read-out: IC50 NCI-N87 cell
testReadout: IC50 (nM)
Write down the numeric answer in nM and omit the unit.

Prompt: # return recorded IC50 for input "C=CC(=O)Nc1cc2c(Nc3ccc(F)c(Cl)c3)ncnc2cc1OCC1CC2(CCN(C)CC2)C1"
Completion: 7.1
